Cited source for all entries: patent US9694015B2

test system: MDC; experiment: LPS-stimulated hPBMC cytokine/chemokine production: MDC; type: cell-based; conditions: Homo sapiens
Recorded IC50, one value per entry.
Supply the numeric figure in nM, leaving out any unit text.

Would you please look over these solved cases?
INSERT INTO measurements (compound, unit_spec, measured_result) VALUES
  ('Nc1cccc2c1CN(C1CCC(=O)NC1=O)C2=O (stereo not drawn) [lenalidomide, reference compound]', 'nM', 190),
  ('O=C1CC[C@H](N2Cc3c(OCc4ccc(CN5CCOCC5)cc4)cccc3C2=O)C(=O)N1', 'nM', 2.1);

If you can, please state the reported IC50 value of O=C1CCC(N2Cc3c(OCc4ccc(CN5CCOCC5)cc4)cccc3C2=O)C(=O)N1 (stereo not drawn) .
2.6

Proceed to O=C1CC[C@@H](N2Cc3c(OCc4ccc(CN5CCOCC5)cc4)cccc3C2=O)C(=O)N1
12

What do you get for Nc1cccc2c1C(=O)N(C1CCC(=O)NC1=O)C2=O (stereo not drawn) [pomalidomide, reference compound] ?
31
